inhibition at 1 µM listing for selected molecules.
target: human 5-HT4R (5-HT4(b) membrane preparations) (Homo sapiens); construct: purchased Eurofins HTS110M; experiment: h5-HT4R radioligand displacement ([3H]-GR113808); type: binding; settings: 10^−6 M; 0.5 nM [3H]-GR113808
Sequence (Q13639 whole entry): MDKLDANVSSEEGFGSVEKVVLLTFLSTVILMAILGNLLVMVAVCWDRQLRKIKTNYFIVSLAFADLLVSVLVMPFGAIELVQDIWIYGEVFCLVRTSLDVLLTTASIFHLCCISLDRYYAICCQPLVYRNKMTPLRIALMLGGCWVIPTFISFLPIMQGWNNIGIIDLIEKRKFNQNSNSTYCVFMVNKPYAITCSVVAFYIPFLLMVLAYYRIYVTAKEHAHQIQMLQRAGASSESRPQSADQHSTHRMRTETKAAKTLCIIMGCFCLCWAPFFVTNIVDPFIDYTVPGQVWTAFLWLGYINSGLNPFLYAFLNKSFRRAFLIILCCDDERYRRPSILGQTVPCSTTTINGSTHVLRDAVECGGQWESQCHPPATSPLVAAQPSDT
Expressed in %, but write only the number.

// below: answered molecules
1) COc1cc(NC(C)=O)c(Cl)cc1-c1nn(C)cc1CC1CCN(CC2CCCCC2)CC1
16
2) COc1cc(N)c(Cl)cc1C(=O)CCC1CCN(CC2CCCCC2)CC1 [Donecopride, donecopride, reference compound]
100
3) COc1ccc(-c2cc(OCC3CCN(Cc4cccc(C)c4)CC3)n(C)n2)cc1OC [12d]
9
4) COc1cc(NC(C)=O)c(Cl)cc1C(=O)CCC1CCN(CC2CCCCC2)CC1
94
5) COc1cc(N)c(Cl)cc1C(=O)CCC1CCN(Cc2cccc(C)c2)CC1 [MR33372, reference compound]
98
6) COc1cc(NC(C)=O)c(Cl)cc1-c1cc(OCC2CCN(Cc3cccc(C)c3)CC2)n(C)n1 [12b]
9
7) CCCCN1CCC(CCC(=O)c2cc(Cl)c(N)cc2OC)CC1 [RS67333, reference compound]
100
8) Cc1cccc(CN2CCC(COc3cc(-c4ccccc4)nn3C)CC2)c1 [12c]
10

Data request: Param item = "COc1cc(N)c(Cl)cc1-c1nn(C)cc1CC1CCN(CC2CCCCC2)CC1" ; retrieve measured inhibition at 1 µM.
Data returned: 34

Data request: Could you do the same for "COc1cc(N)c(Cl)cc1-c1nn(C)cc1CC1CCN(Cc2cccc(C)c2)CC1" , please?
Data returned: 20

Origin of measurements: paper PMC8123621
